Target: T1, human GIP receptor (human, UniProt P48546 22-466)
T1 sequence (looked up): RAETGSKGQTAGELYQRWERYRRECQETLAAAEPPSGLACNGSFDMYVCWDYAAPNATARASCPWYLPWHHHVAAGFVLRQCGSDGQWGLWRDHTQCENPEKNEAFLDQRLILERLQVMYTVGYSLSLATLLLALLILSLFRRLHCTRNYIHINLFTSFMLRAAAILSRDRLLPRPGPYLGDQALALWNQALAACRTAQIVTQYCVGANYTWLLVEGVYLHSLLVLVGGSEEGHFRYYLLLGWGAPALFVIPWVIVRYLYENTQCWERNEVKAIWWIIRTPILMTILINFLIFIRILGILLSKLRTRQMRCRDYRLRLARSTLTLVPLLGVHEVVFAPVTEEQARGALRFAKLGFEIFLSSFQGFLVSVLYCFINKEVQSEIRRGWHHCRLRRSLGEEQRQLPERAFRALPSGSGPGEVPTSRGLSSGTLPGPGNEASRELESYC
Assay: cell-based or functional assay
Bridge positions count the residues as written; N and C are the ends. Square brackets hold non-standard residues; d marks the D form. Ends that are not written are not given here. C20L5A = not defined here; Aib = CC(C)(N)C(=O)O
Mark YES only when EC50 of receptor-mediated cAMP synthesis, GIPR (nM), average stays strictly below 0.3 nM. Values equal to the cut-off are NO.

{"columns": ["binder", "category"],
 "data": [
  ["Y[Aib]EGTYTSDYSIYCDKQAA[Aib]CFVNWLIAGGPSSGAPPPS-NH2 (linker 14-21 via C20L5A; not fully specified; reading uncertain) [6Y, 27I, C(14-21)-C20L5A]", "NO"],
  ["Y[Aib]EGTFTSDYSIYLDKCAA[Aib]EFVCWLIAGGPSSGAPPPS-NH2 (linker 17-24 via C20L5A; not fully specified; reading uncertain) [mCMV268 (27I, C(17-24)-C20L5A)]", "YES"],
  ["Y[Aib]EGTFTSDYSIYCDKQAA[Aib]CFVNWLIAGGPSSGAPPPS-NH2 (linker 14-21 via C20L5A; not fully specified; reading uncertain) [mCMV266 (27I, C(14-21)-C20L5A)]", "YES"],
  ["Y[Aib]EGTFTSDYSIYKDKQAA[Aib]KFVNWLLAGGPSSGAPPPS-NH2 (bridge 14-21; not fully specified (bridges); also: K4 staple carries PEG-fatty acid) [mCMD307 (2050-K4)]", "YES"],
  ["Y[Aib]EGTYTNDYSIYLDKCAA[Aib]EFVCWLIAGGPSSGAPPPS-NH2 (linker 17-24 via C20L5A; not fully specified; reading uncertain) [6Y, 8N, 27I, C(17-24)-C20L5A]", "NO"]
]}

Query :: Identify whether the binder Y[Aib]EGTYTSDYSIYLDKCAA[Aib]EFVCWLIAGGPSSGAPPPS-NH2 (linker 17-24 via C20L5A; not fully specified; reading uncertain) [6Y, 27I, C(17-24)-C20L5A] records EC50 of receptor-mediated cAMP synthesis, GIPR (nM), average below 0.3 nM.
Result :: YES

Data origin: patent US20250320252A1
